# assayed-system: hTAAR1 (Homo sapiens)
# Construct: expressed in transfected cells; host or cells: HEK-293T (ATCC)
# Sequence (Q96RJ0 1-339): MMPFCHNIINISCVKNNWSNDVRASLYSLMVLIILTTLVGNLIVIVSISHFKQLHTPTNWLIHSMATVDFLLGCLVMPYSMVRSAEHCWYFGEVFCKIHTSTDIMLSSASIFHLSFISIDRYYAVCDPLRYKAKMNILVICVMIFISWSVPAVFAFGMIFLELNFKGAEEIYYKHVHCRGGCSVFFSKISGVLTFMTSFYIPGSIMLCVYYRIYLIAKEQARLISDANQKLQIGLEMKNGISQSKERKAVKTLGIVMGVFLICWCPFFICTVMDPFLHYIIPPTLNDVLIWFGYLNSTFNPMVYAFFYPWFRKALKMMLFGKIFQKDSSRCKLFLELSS
# procedure-details: Functional activity at hTAAR1, cAMP BRET biosensor in HEK-293T cells
# Assay type: cell-based
# condition-parameters: dose–response 10 nM to 10 μM; means of 4 experiments, errors within 10%; read-out: hTAAR1 EC50
experimental-endpoint: pEC50
By convention, pEC50 is the negative base-10 log of a molar concentration.

Quick check: pEC50 on hTAAR1 (Homo sapiens), item NCCc1ccc(O)cc1 [TYR, tyramine, reference compound] ?
7.18

What do we get for N=C(N)N1CCN(c2cccc(C(F)(F)F)c2)CC1 ?
7.19

Would you mind doing COc1cccc(N2CCN(C(=N)N)CC2)c1.Cl as well?
6.61

====

Exercise: state measured melting point for each of the compounds provided.
Counter-ions that a name gives are not always drawn.

Sample N=C(N)N1CCN(c2cccc(C(F)(F)F)c2)CC1 (as salt: hydrochloride) — what was its melting point?
170 to 173 °C

What about this compound? Cl.N=C(N)N1CCN(c2ccccc2)CC1
214 to 217 °C

Do the same for Cc1ccccc1N1CCN(C(=N)N)CC1.Cl please
159 to 162 °C

Same question for Cl.N#Cc1ccccc1N1CCN(C(=N)N)CC1 please.
236 to 238 °C

// same read-out, input: Cl.N=C(N)N1CCN(c2ccc(Cl)c(Cl)c2)CC1
235 to 237 °C

What about Cl.N=C(N)N1CCN(c2ccccn2)CC1 ?
205 to 208 °C

And Cl.N=C(N)N1CCN(c2ccccc2F)CC1 ?
145 to 148 °C

====

Hi there, I'd appreciate the recorded CC50 for every entry that follows.
# procedure-details: Cell cytotoxicity assay (MTT) on Vero-76 cells
# Format: cell-based, Cercopithecus Aethiops
# condition-parameters: Cercopithecus aethiops (African green monkey), Vero-76 cells; MTT method, 48–96 h; CC50±SEM
Express the result in µM but write the number alone.

What CC50 value was documented for this molecule, COc1ccc(N2CCN(C(=N)N)CC2)cc1.Cl [Compound 8] ?
88

Quick one: Cl.N=C(N)N1CCN(c2ccc(Cl)c(Cl)c2)CC1 [Compound 16]
89

Next molecule up: Cc1ccccc1N1CCN(C(=N)N)CC1.Cl [Compound 2]
80

Item: Cl.N=C(N)N1CCN(c2cccc(Cl)c2Cl)CC1 [Compound 15]
82

Same read-out for Cl.N=C(N)N1CCN(c2ccccc2F)CC1 [Compound 13] ?
87

What about Cl.N=C(N)N1CCN(c2ccc(F)cc2)CC1 [Compound 14] ?
94

Next up: Cl.N=C(N)N1CCN(c2ccc(Cl)cc2)CC1 [Compound 5]
95

How about Cl.N=C(N)N1CCN(c2ccccn2)CC1 [Compound 10] ?
74

And what about the molecule Cl.N=C(N)N1CCN(c2cccc(Cl)c2)CC1 [Compound 4] ?
90

Entry to check: Cl.N#Cc1ccccc1N1CCN(C(=N)N)CC1 [Compound 12]
78

====

For each record, write down the corresponding CC50.
# procedure-details: Cell cytotoxicity assay (MTT) on Vero-76 cells
# Format: cell-based, Cercopithecus Aethiops
# condition-parameters: Cercopithecus aethiops (African green monkey), Vero-76 cells; MTT method, 48–96 h; CC50±SEM
The reply should be a number in µM, with the unit left off.

Consider the molecule shown here: COc1ccccc1N1CCN(C(=N)N)CC1.Cl What is its recorded CC50?
83

Follow-up entry: COc1cccc(N2CCN(C(=N)N)CC2)c1.Cl
87

Would you kindly repeat that for Cl.N=C(N)N1CCN(c2ncccn2)CC1 ?
64

Repeat for the following molecule: Cl.N=C(N)N1CCN(c2ccccc2)CC1
84
